These measurements were taken from PubChem BioAssay (Tox21).

assay: qHTS assay to identify small molecule agonists of the retinoic acid receptor (RAR) signaling pathway (AID 1159553); settings: C3RL4 RARE luciferase reporter, agonist, 6 h; series mostly up to 73.3 µM
Inconclusive results are not listed. Active and inactive are the calls of the source. The call rests on the fitted dose curve; in most records, active means well fitted activation curve with a large enough effect in the repeat runs; inconclusive means weak or mixed curves, or effect the other way; inactive means no such curve, though single readings can be large or run the other way.
Output constraint: value belongs to 1 (yes) = active, 0 (no) = inactive

Task: Lab log entry: `COc1cccc(C(=O)CCN[C@@H](C)[C@H](O)c2ccccc2)c1` — outcome as called in the assay?
Result: 0 (no)

Task: Proceed to `FC(F)(F)c1cccc(C2=CCN(CCc3ccc4ccccc4c3)CC2)c1`
Result: 0 (no)

Task: Proceed to `CCOC(=O)CC(=O)CCl`
Result: 0 (no)

Task: Proceed to `CN(C)c1ccc(N=Nc2ccccc2)cc1`
Result: 1 (yes)

Task: Proceed to `Clc1ccc(-c2ccc(Cl)c(Cl)c2Cl)c(Cl)c1Cl`
Result: 0 (no)

* * *

assay: Caspase-3/7 induction in HepG2 cells by small molecules, qHTS assay (AID 1346978); settings: HepG2 caspase-3/7 activation, Caspase-Glo luminescence, 17 h; series mostly up to 92.4 µM; further: nearly all actives have a fitted effect of over 15% in size
Results filed as inconclusive are left out. Active and inactive are the calls of the source. Calls come from the whole dose curve; as a rule, active = well fitted activation curve with a large enough effect in the repeat runs; inconclusive = weak or mixed curves; inactive = flat fitted curve, though single readings scatter.
Output constraint: value belongs to active, inactive

Task: Lab log entry: `Nc1ccc(Cc2ccc(N)c(Cl)c2)cc1Cl` — outcome as called in the assay?
Result: inactive

Task: Proceed to `Nc1ccc(Cl)cc1C(=O)c1ccccc1`
Result: inactive

Task: Proceed to `COS(=O)(=O)c1ccc(C)cc1`
Result: inactive

Task: Proceed to `CC(C)OS(C)(=O)=O`
Result: inactive

Task: Proceed to `CC(C)CCCCCOC(=O)c1ccccc1C(=O)OCCCCCC(C)C`
Result: inactive

Task: Proceed to `Cn1cc(C2=C(c3cn(C4CCN(Cc5ccccn5)CC4)c4ccccc34)C(=O)NC2=O)c2ccccc21`
Result: inactive

Task: Proceed to `CN(C)S(=O)(=O)N(SC(F)(Cl)Cl)c1ccccc1`
Result: inactive

Task: Proceed to `CCCCCCCCCCCCCCCC[N+](C)(C)C`
Result: inactive

Task: Proceed to `Fc1cccc(Cl)c1CCl`
Result: inactive

Task: Proceed to `COc1ccc(/C(=C/C(=O)N2CCOCC2)c2ccc(Cl)cc2)cc1OC`
Result: inactive

Task: Proceed to `CN(C)c1ccc(N=Nc2ccccc2)cc1`
Result: inactive

Task: Proceed to c1ccc2c(c1)OCC(C1=NCCN1)O2 (stereo not drawn)
Result: inactive

Task: Proceed to `O=C/C(Cl)=C(/Cl)C(=O)O`
Result: inactive

Task: Proceed to `CN(CCCC(=O)c1cccnc1)N=O`
Result: inactive

Task: Proceed to `O=S(=O)(c1ccc(Cl)cc1)c1ccc(Cl)cc1`
Result: inactive

Task: Proceed to `CC(=O)[O-].CC(=O)[O-].O.O.[Cd+2]`
Result: inactive

Task: Proceed to `OC(c1ccc(Cl)cc1)(c1ccc(Cl)cc1)C(Cl)(Cl)Cl`
Result: inactive

Task: Proceed to CCOC(=O)OC1=C(c2cc(C)ccc2C)C(=O)NC12CCC(OC)CC2 (stereo not drawn)
Result: inactive

Task: Proceed to Clc1ccc(CSC(Cn2ccnc2)c2ccc(Cl)cc2Cl)cc1 (stereo not drawn)
Result: inactive

Task: Proceed to `O=[N+]([O-])c1cc([N+](=O)[O-])c2ccccc2c1`
Result: inactive

Task: Proceed to `Cl/C=C\CCl`
Result: inactive

Task: Proceed to `O=c1[nH]c2ccccc2n1C1CCN(CCCC(c2ccc(F)cc2)c2ccc(F)cc2)CC1`
Result: active

Task: Proceed to `O=C1C=CC(=O)c2ccccc21`
Result: inactive

Task: Proceed to `CCOC(=O)C1(c2ccccc2)CCN(CCC(C#N)(c2ccccc2)c2ccccc2)CC1`
Result: inactive

Task: Proceed to `O=[N+]([O-])c1ccc(Oc2ccc(C(F)(F)F)cc2[N+](=O)[O-])cc1`
Result: inactive

Task: Proceed to `C=COCCCl`
Result: inactive

Task: Proceed to `ClC1=C(Cl)[C@]2(Cl)[C@@H]3[C@@H](Cl)[C@@H](Cl)C[C@@H]3[C@@]1(Cl)C2(Cl)Cl`
Result: inactive

Task: Proceed to `CCCN(CCC)CCc1c[nH]c2ccccc12`
Result: inactive

Task: Proceed to `COCC(=O)N(c1c(C)cccc1C)[C@H](C)C(=O)OC`
Result: inactive

Task: Proceed to `C[C@H]1O[C@@H](O[C@H]2[C@@H](O)C[C@H](O[C@H]3[C@@H](O)C[C@H](O[C@H]4CC[C@@]5(C)[C@H](CC[C@@H]6[C@@H]5CC[C@]5(C)[C@@H](C7=CC(=O)OC7)CC[C@]65O)C4)O[C@@H]3C)O[C@@H]2C)C[C@H](O)[C@@H]1O`
Result: inactive

Task: Proceed to N#CCCC(Br)(C#N)CBr (stereo not drawn)
Result: inactive

Task: Proceed to `BrCBr`
Result: inactive

Task: Proceed to CCCCCCCCCCCCCC[P+](CCCCCC)(CCCCCC)CCCCCC (tested in a mixture with another compound)
Result: active

Task: Proceed to CC(C)[C@H](C(=O)OC(C#N)c1cccc(Oc2ccccc2)c1)c1ccc(OC(F)F)cc1 (stereo partly drawn)
Result: inactive

Task: Proceed to `Cc1ccc(C(=O)Cl)cc1`
Result: inactive

Task: Proceed to `CCCCCCCCCBr`
Result: inactive

Task: Proceed to `CC(=O)c1ccc(-c2ccccc2)cc1`
Result: inactive

Task: Proceed to `O=C(O)COc1nc(Cl)c(Cl)cc1Cl`
Result: inactive

Task: Proceed to COc1ccc(OC)c(CC(C)N)c1 (stereo not drawn)
Result: inactive

Task: Proceed to `N#CCCSCCC#N`
Result: inactive

Task: Proceed to `Oc1c(Cl)c(Cl)cc(Cl)c1Cl`
Result: inactive

Task: Proceed to `C=CCOC(N)=O`
Result: inactive

Task: Proceed to CCCCCCCCCCCCCCC(Br)C(=O)O (stereo not drawn)
Result: inactive

Task: Proceed to `CS(=O)(=O)c1ccc(C(=O)C2C(=O)CCCC2=O)c([N+](=O)[O-])c1`
Result: inactive

Task: Proceed to `C[C@@H]1O[C@@H](O[C@H]2C[C@@H](O)[C@]3(CO)[C@H]4[C@H](O)C[C@]5(C)[C@@H](C6=CC(=O)OC6)CC[C@]5(O)[C@@H]4CC[C@]3(O)C2)[C@H](O)[C@H](O)[C@H]1O`
Result: inactive

Task: Proceed to CC1(C)C(/C=C(\Cl)C(F)(F)F)C1C(=O)OC(C#N)c1cccc(Oc2ccccc2)c1 (stereo not drawn)
Result: inactive

Task: Proceed to `CCCN(CCC)c1c([N+](=O)[O-])cc(S(N)(=O)=O)cc1[N+](=O)[O-]`
Result: active

Task: Proceed to `N#Cc1ccccc1N`
Result: inactive
